System: Escherichia coli TOP10;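 further: peptides expressed intracellularly from a pBAD plasmid library in pooled LB shake-flask culture, induced with 0.3% L-arabinose, DNA abundance read by NGS, three biological replicates, DESeq2 with apeglm shrinkage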
Experiment: shrunken log2 fold change of peptide-encoding DNA abundance (4.5 h post-induction vs induction); higher = less antimicrobial activity (less host growth inhibition)
Settings: time post-induction: 4.5 h; library: site-saturation at positions 5, 18, 19, 20

{"columns": ["constructSequence", "assayTarget", "shrunken log2 fold change"],
 "data": [
  ["RRIRPRPPRLPRPRPRPMCIPRP", "Escherichia coli TOP10", -0.0687],
  ["RRIRERPPRLPRPRPRPPKFPRP", "Escherichia coli TOP10", -0.0978],
  ["RRIRERPPRLPRPRPRPTPYPRP", "Escherichia coli TOP10", -0.389],
  ["RRIRSRPPRLPRPRPRPMWHPRP", "Escherichia coli TOP10", -0.332],
  ["RRIRTRPPRLPRPRPRPKVQPRP", "Escherichia coli TOP10", -0.0279],
  ["RRIRDRPPRLPRPRPRPGIAPRP", "Escherichia coli TOP10", 0.37],
  ["RRIRKRPPRLPRPRPRPFPGPRP", "Escherichia coli TOP10", -0.0018],
  ["RRIRKRPPRLPRPRPRPTSAPRP", "Escherichia coli TOP10", 0.797]
]}
